Data credit: ChEMBL document CHEMBL1127612

Tested on: Mus musculus
Assay: Tested for biodistribution of radioactivity after 3h of intravenous injection in mice kidneys
Type: ADME, organism-based, Kidney
Conditions: in vivo
EXPERIMENTAL READOUT: Dose/organ (%)

{"MOLECULE": "CCc1ccc(O)c(I)c1", "Dose/organ [%]": 0.83}

A: CN[C@@H](CCCCN)C(=O)NC(=O)c1cccc(I)c1
B: CN[C@@H](CSC1CC(=O)N(CCOC(=O)CNC(=O)c2cccc(I)c2)C1=O)C(=O)O (stereo not given in full)
C: NCCCCC(N)C(=O)NC(=O)c1cccc(I)c1 (stereo not given)
D: N[C@@H](CSC1CC(=O)N(CCOC(=O)CNC(=O)c2cccc(I)c2)C1=O)C(=O)O (stereo not given in full)
Sort entries by Dose/organ from minimum to maximum value. Could you list the labels in the order requested?
B, A, D, C
(B: 0.14%, A: 0.7%, D: 5%, C: 7.4%)

* * *

System: Mus musculus
Test: Tested for biodistribution of radioactivity after 6 hr of intravenous injection in mice liver
Type: ADME, organism-based
Conditions: in vivo
EXPERIMENTAL READOUT: Dose/organ (%)

{"MOLECULE": "NCCCCC(N)C(=O)NC(=O)c1cccc(I)c1 (stereo not given)", "EXPERIMENTAL READOUT": "Dose/organ", "DATA VALUE": 9.83}
{"MOLECULE": "CN[C@@H](CCCCN)C(=O)NC(=O)c1cccc(I)c1", "EXPERIMENTAL READOUT": "Dose/organ", "DATA VALUE": 2.82}
{"MOLECULE": "N[C@@H](CSC1CC(=O)N(CCOC(=O)CNC(=O)c2cccc(I)c2)C1=O)C(=O)O (stereo not given in full)", "EXPERIMENTAL READOUT": "Dose/organ", "DATA VALUE": 5.39}

a: CCc1ccc(O)c(I)c1
b: CN[C@@H](CSC1CC(=O)N(CCOC(=O)CNC(=O)c2cccc(I)c2)C1=O)C(=O)O (stereo not given in full)
Just curious, which one has the larger Dose/organ reading, a or b ? Identify your selection by its label.
a

* * *

System: Mus musculus
Assay: Tested for biodistribution of radioactivity after 6 hr of intravenous injection in mice spleen
Assay type: ADME, organism-based
Settings: in vivo
EXPERIMENTAL READOUT: Dose/organ (%)

{"COMPOUND": "CCc1ccc(O)c(I)c1", "SYSTEM TESTED": "Mus musculus", "UNIT": "%", "Dose/organ": 0.06}

a: CN[C@@H](CCCCN)C(=O)NC(=O)c1cccc(I)c1
b: N[C@@H](CSC1CC(=O)N(CCOC(=O)CNC(=O)c2cccc(I)c2)C1=O)C(=O)O (stereo not given in full)
c: NCCCCC(N)C(=O)NC(=O)c1cccc(I)c1 (stereo not given)
d: CN[C@@H](CSC1CC(=O)N(CCOC(=O)CNC(=O)c2cccc(I)c2)C1=O)C(=O)O (stereo not given in full)
Order the 4 compounds from highest to lowest Dose/organ. To answer, write out the labels according to the requested order.
c, b, d, a
(c: 5.48%, b: 3.19%, d: 0.07%, a: 0.02%)

* * *

Test system: Mus musculus
Experiment: Tested for biodistribution of radioactivity after 24 hr of intravenous injection in mice liver
Assay type: ADME, organism-based
Conditions: in vivo
EXPERIMENTAL READOUT: Dose/organ (%)

These recorded examples may help you get a feel for the data.
{"COMPOUND": "CCc1ccc(O)c(I)c1", "Dose/organ [%]": 0.37}
{"COMPOUND": "CN[C@@H](CSC1CC(=O)N(CCOC(=O)CNC(=O)c2cccc(I)c2)C1=O)C(=O)O (stereo not given in full)", "Dose/organ [%]": 0.27}
{"COMPOUND": "NCCCCC(N)C(=O)NC(=O)c1cccc(I)c1 (stereo not given)", "Dose/organ [%]": 4.94}

I: N[C@@H](CSC1CC(=O)N(CCOC(=O)CNC(=O)c2cccc(I)c2)C1=O)C(=O)O (stereo not given in full)
II: CN[C@@H](CCCCN)C(=O)NC(=O)c1cccc(I)c1
Select the item with the higher value of Dose/organ from the options I and II listed. Return value: the label identifying the chosen record.
I

* * *

System: Mus musculus
Assay: Tested for biodistribution of radioactivity after 6 hr of intravenous injection in mice blood
Format: ADME, organism-based
Conditions: in vivo
EXPERIMENTAL READOUT: Dose/g (%)

Look over these answered cases.
{"MOLECULE": "CN[C@@H](CCCCN)C(=O)NC(=O)c1cccc(I)c1", "Dose/g (%)": 0.04}
{"MOLECULE": "NCCCCC(N)C(=O)NC(=O)c1cccc(I)c1 (stereo not given)", "Dose/g (%)": 23.13}
{"MOLECULE": "CN[C@@H](CSC1CC(=O)N(CCOC(=O)CNC(=O)c2cccc(I)c2)C1=O)C(=O)O (stereo not given in full)", "Dose/g (%)": 0.03}

1: CCc1ccc(O)c(I)c1
2: N[C@@H](CSC1CC(=O)N(CCOC(=O)CNC(=O)c2cccc(I)c2)C1=O)C(=O)O (stereo not given in full)
Given the listed items, does 1 or 2 have the lesser reported Dose/g? Answer by stating the label of the chosen item.
1

* * *

System: Mus musculus
Experiment: Tested for biodistribution of radioactivity after 1 hr of intravenous injection in mice spleen
Format: ADME, organism-based
Details: in vivo
EXPERIMENTAL READOUT: Dose/organ (%)

Below are worked cases with known answers.
{"MOLECULE": "CN[C@@H](CCCCN)C(=O)NC(=O)c1cccc(I)c1", "Dose/organ (%)": 0.09}
{"MOLECULE": "NCCCCC(N)C(=O)NC(=O)c1cccc(I)c1 (stereo not given)", "Dose/organ (%)": 6.38}

a: CN[C@@H](CSC1CC(=O)N(CCOC(=O)CNC(=O)c2cccc(I)c2)C1=O)C(=O)O (stereo not given in full)
b: N[C@@H](CSC1CC(=O)N(CCOC(=O)CNC(=O)c2cccc(I)c2)C1=O)C(=O)O (stereo not given in full)
c: CCc1ccc(O)c(I)c1
Ascending sort, Dose/organ. Labels, ranked as asked.
a, c, b

* * *

Tested on: Mus musculus
Experiment: Tested for biodistribution of radioactivity after 3h of intravenous injection in mice blood
Assay type: ADME, organism-based
Conditions: in vivo
EXPERIMENTAL READOUT: Dose/g (%)

Examples with their reported Dose/g follow.
{"MOLECULE": "CCc1ccc(O)c(I)c1", "SYSTEM TESTED": "Mus musculus", "UNIT": "%", "Dose/g": 1.4}
{"MOLECULE": "CN[C@@H](CCCCN)C(=O)NC(=O)c1cccc(I)c1", "SYSTEM TESTED": "Mus musculus", "UNIT": "%", "Dose/g": 0.11}
{"MOLECULE": "N[C@@H](CSC1CC(=O)N(CCOC(=O)CNC(=O)c2cccc(I)c2)C1=O)C(=O)O (stereo not given in full)", "SYSTEM TESTED": "Mus musculus", "UNIT": "%", "Dose/g": 25.11}

P: CN[C@@H](CSC1CC(=O)N(CCOC(=O)CNC(=O)c2cccc(I)c2)C1=O)C(=O)O (stereo not given in full)
Q: NCCCCC(N)C(=O)NC(=O)c1cccc(I)c1 (stereo not given)
Kindly identify the item with the lower Dose/g figure among these two: P and Q // respond with label for picked entry
P
(P: 0.09%, Q: 26.13%)

* * *

Tested on: Mus musculus
Assay: Tested for biodistribution of radioactivity after 6 hr of intravenous injection in mice neck
Assay type: ADME, organism-based
Settings: in vivo
EXPERIMENTAL READOUT: Dose/organ (%)

{"MOLECULE": "N[C@@H](CSC1CC(=O)N(CCOC(=O)CNC(=O)c2cccc(I)c2)C1=O)C(=O)O (stereo not given in full)", "Dose/organ, %": 0.45}

a: NCCCCC(N)C(=O)NC(=O)c1cccc(I)c1 (stereo not given)
b: CCc1ccc(O)c(I)c1
c: CN[C@@H](CSC1CC(=O)N(CCOC(=O)CNC(=O)c2cccc(I)c2)C1=O)C(=O)O (stereo not given in full)
d: CN[C@@H](CCCCN)C(=O)NC(=O)c1cccc(I)c1
Please list these molecules in decreasing order of Dose/organ. API: response body holds the labels in the requested order.
a, b, c, d

* * *

Tested on: Mus musculus
Assay: Tested for biodistribution of radioactivity after 24 hr of intravenous injection in mice neck
Format: ADME, organism-based
Details: in vivo
EXPERIMENTAL READOUT: Dose/organ (%)

{"COMPOUND": "CN[C@@H](CCCCN)C(=O)NC(=O)c1cccc(I)c1", "EXPERIMENTAL READOUT": "Dose/organ", "DATA VALUE": 0.01}
{"COMPOUND": "N[C@@H](CSC1CC(=O)N(CCOC(=O)CNC(=O)c2cccc(I)c2)C1=O)C(=O)O (stereo not given in full)", "EXPERIMENTAL READOUT": "Dose/organ", "DATA VALUE": 0.32}
{"COMPOUND": "CN[C@@H](CSC1CC(=O)N(CCOC(=O)CNC(=O)c2cccc(I)c2)C1=O)C(=O)O (stereo not given in full)", "EXPERIMENTAL READOUT": "Dose/organ", "DATA VALUE": 0.01}

I: CCc1ccc(O)c(I)c1
II: NCCCCC(N)C(=O)NC(=O)c1cccc(I)c1 (stereo not given)
# return whichever of I and II has the smaller Dose/organ In your reply, give the label of the chosen option.
I
(I: 0.01%, II: 0.34%)
